system: M14; experiment: NCI tumour cell line growth inhibition, 48 h
Calls of active or inactive are those of the source. Cut-off read from the data, not from the text of the source: active = GI50 up to about 1.1 µM and inactive = higher.
Result type: GI50

Below are worked cases with known answers.
smiles_text=c1coc(C2=Nc3cccc4cccc(c34)N2)c1 target_of_assay=M14 recorded_value="25.4 µM (inactive)"
smiles_text=Clc1ccc2[nH]c(CCSCCc3nc4ccc(Cl)cc4[nH]3)nc2c1 target_of_assay=M14 recorded_value="13 µM (inactive)"
smiles_text=Fc1ccc(C2(CCCN3CCc4[nH]c5cc(F)ccc5c4C3)OCCO2)cc1 target_of_assay=M14 recorded_value="2.53 µM (inactive)"

Request: GI50, test system M14, entry CN(C)c1ccc(/C=N\NC(=O)Nc2cccc3ccccc23)cc1
5.37 µM (inactive)

Moving on to the next molecule: C[N+](C)(C)C1=NNC2=Nc3ccccc3SC2=C1
15.7 µM (inactive)

Moving on to the next molecule: CCOc1ccccc1/N=N/c1ccc2oc(=O)c(C(C)=O)cc2c1
> 100 µM (inactive)

Reference source: ChEMBL document CHEMBL1201862
